# protocol_text: Fraction unbound in Sprague-Dawley rat plasma by equilibrium dialysis
# Assay type: ADME, cell-free
experimental_readout: fraction unbound

1 = CC[C@@H]1CCCCN1C(=O)c1cnc(Nc2ccc(C)nc2)c(Cl)c1
2 = CCCn1c(-c2cnc(Nc3ccc(C)nc3)c(Cl)c2)nc2cccc(Cl)c21
Parameter metric = fraction unbound. Return the lower-valued option from 1 and 2 . Lab note: record the label of whichever item you select.
2
(2: 0.017, 1: 0.127)

###

# protocol_text: Binding affinity to kainate receptor glutamate binding site in rat brain membrane by radioligand displacement assay
# Type: cell membranes
pIC50: −log10 of the molar value.
experimental_readout: pIC50

What pIC50 value was documented for this compound, CCCn1c(-c2cnc(Nc3ccc(C)nc3)c(Cl)c2)nc2cccc(Cl)c21 ?
< 5.00

###

# protocol_text: Ratio of drug level in brain to plasma rat at 0.3 mg/kg, po after 90 mins
# Type: ADME, organism-based
# Design: dose 0.3 mg/kg, route oral
# test_parameters: brain and plasma
experimental_readout: Kp at 1.5 h
The answer should be a number; do not append a unit.

I'd like to know its Kp at 1.5 h. The compound in question is CCCn1c(-c2cnc(Nc3ccc(C)nc3)c(Cl)c2)nc2cccc(Cl)c21
1.2

###

# system_tested: Metabotropic glutamate receptor 5 (Homo sapiens, UniProt P41594)
# Sequence (P41594 whole entry): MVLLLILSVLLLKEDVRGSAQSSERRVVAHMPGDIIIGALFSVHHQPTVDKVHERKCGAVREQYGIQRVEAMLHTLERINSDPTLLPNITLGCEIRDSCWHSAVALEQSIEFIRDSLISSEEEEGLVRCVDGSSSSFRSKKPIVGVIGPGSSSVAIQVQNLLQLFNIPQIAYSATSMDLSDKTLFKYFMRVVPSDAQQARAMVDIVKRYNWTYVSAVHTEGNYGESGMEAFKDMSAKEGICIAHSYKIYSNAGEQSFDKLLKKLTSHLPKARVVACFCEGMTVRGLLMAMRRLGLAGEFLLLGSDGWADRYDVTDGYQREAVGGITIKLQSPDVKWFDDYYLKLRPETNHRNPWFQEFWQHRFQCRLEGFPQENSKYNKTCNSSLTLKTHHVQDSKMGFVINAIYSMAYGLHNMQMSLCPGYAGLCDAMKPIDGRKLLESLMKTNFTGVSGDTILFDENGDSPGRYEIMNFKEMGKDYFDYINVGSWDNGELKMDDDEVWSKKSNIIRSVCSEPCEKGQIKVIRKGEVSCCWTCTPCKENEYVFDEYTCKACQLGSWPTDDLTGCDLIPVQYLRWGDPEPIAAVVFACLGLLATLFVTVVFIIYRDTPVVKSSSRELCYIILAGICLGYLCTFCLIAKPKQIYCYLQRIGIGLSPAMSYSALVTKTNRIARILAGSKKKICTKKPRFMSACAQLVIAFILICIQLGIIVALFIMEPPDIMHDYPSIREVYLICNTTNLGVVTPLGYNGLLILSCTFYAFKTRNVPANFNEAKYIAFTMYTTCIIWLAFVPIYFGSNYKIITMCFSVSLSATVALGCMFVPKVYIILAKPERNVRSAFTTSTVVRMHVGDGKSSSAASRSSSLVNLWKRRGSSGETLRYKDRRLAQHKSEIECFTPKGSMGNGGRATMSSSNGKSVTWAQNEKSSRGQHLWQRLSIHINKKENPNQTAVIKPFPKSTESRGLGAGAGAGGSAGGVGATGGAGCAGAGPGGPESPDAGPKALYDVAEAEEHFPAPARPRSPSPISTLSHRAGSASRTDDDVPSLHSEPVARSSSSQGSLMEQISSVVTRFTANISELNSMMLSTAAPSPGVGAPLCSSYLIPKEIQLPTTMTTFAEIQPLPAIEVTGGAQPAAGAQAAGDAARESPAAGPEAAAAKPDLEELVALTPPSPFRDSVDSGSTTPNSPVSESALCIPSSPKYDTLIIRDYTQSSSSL
# protocol_text: Antagonist activity at human mGlu5 receptor assessed as inhibition of glutamate-induced calcium flux by cell based assay
pIC50: −log10 of the molar value.
experimental_readout: pIC50

Consider the worked cases shown below.
record_smiles=CCn1c(-c2cnc(Nc3ccc(C)nc3)c(Cl)c2)nc2ccccc21 reported_value=6.96
record_smiles=CCCn1c(-c2cnc(Nc3ccc(C)nc3)c(Cl)c2)nc2c(Cl)cccc21 reported_value=6.70

P = CCCn1c(-c2cnc(Nc3ccc(C)nc3)c(Cl)c2)nc2ccc(Cl)cc21
Q = Cc1cn(C)c(-c2cnc(Nc3ccc(Cl)cc3)c(Cl)c2)n1
Please state the entry with greater pIC50 among P and Q . Your answer should be the label attached to the chosen record.
P
(P: 6.89, Q: 5.54)

###

# protocol_text: Intrinsic clearance in human liver microsomes assessed per mg of protein
# Type: ADME, Microsome
experimental_readout: microsomal CLint (µL/min/mg)

1 = CCCn1c(-c2cnc(Nc3ccc(C)nc3)c(Cl)c2)nc2ccccc21
2 = CCCn1c(-c2cnc(Nc3ccc(C)nc3)c(Cl)c2)nc2ccc(Cl)cc21
# argmax over microsomal CLint for candidates 1 and 2 Selection: enter the item's label.
1

I = CCCn1c(-c2cnc(Nc3ccc(C)nc3)c(Cl)c2)nc2cc(Cl)ccc21
II = CCCn1c(-c2cnc(Nc3ccc(C)nc3)c(Cl)c2)nc2cccc(Cl)c21
Of I and II , which carries the smaller reported microsomal CLint figure? Refer to your chosen entry by its label in the reply.
II

P = Cc1ccc(Nc2ncc(-c3nc4ccccc4n3CC(C)C)cc2Cl)cn1
Q = CCn1c(-c2cnc(Nc3ccc(C)nc3)c(Cl)c2)nc2ccccc21
R = CCCCn1c(-c2cnc(Nc3ccc(C)nc3)c(Cl)c2)nc2ccccc21
Let's sort these by microsomal CLint, smallest first. Go ahead? Give the order by naming the labels one after another as requested.
P, Q, R
(P: 55 µL/min/mg, Q: 120 µL/min/mg, R: 347 µL/min/mg)

###

# protocol_text: Ratio of drug level in brain to plasma rat at 3 mg/kg, po after 90 mins
# Assay type: ADME, organism-based
# Design: dose 3 mg/kg, route oral
# test_parameters: brain and plasma
experimental_readout: Kp at 1.5 h
I'd appreciate a reply containing only the number, no unit.

So what does the record say about Kp at 1.5 h for CCCn1c(-c2cnc(Nc3ccc(C)nc3)c(Cl)c2)nc2cccc(Cl)c21 ?
2
